- assay-protocol: Metal chelating activity assessed as compound-Zn2+ complex formation
- Assay type: functional
measurement-label: Kd (nM)
Just the number please, in nM, no unit attached.

smiles-str: c1ccc(CN(CCN(Cc2ccccn2)Cc2ccccn2)Cc2ccccn2)nc1
unit-tag: nM
reported-value: 3e-07

Please look at the following molecule next.
Value of measured Kd for the entry c1ccc(CNCc2ccccn2)nc1 : 210

----------
- system-under-test: E3 ubiquitin-protein ligase XIAP (Homo sapiens)
- assay-protocol: Binding affinity to XIAP BIR3 domain in Smac mimetic-sensitive human MDA-MB-231 cells assessed as increase in cleaved PARP expression at 5 uM after 24 hrs by Western blot analysis
- Format: cell-based
Activity calls are given as the source filed them. The rule behind the calls is not given here.
# output must be one of 1 (yes) for active, 0 (no) for inactive

Take a look at these entries with their results.
smiles-str: CC[C@H](NC)C(=O)N[C@@H]1C(=O)N2[C@@H](CC[C@@H]1CNC(=O)c1ccccc1)CC[C@H]2C(=O)N[C@@H](C(=O)N(Cc1ccccn1)Cc1ccccn1)c1ccccc1
classification: 0 (no)
//
smiles-str: CC[C@H](NC)C(=O)N[C@@H]1C(=O)N2[C@@H](CC[C@@H]1CNC(=O)c1ccccc1)CC[C@H]2C(=O)N[C@H](C(=O)NCCN(Cc1ccccn1)Cc1ccccn1)c1ccccc1
classification: 1 (yes)

# evaluate next
State the result this test recorded for CC[C@H](NC)C(=O)N[C@@H]1C(=O)N2[C@@H](CC[C@@H]1CNC(=O)c1ccccc1)CC[C@H]2C(=O)NC(c1ccccc1)c1ccccc1 .
1 (yes)

----------
- system-under-test: UniProtKB P98170
- assay-protocol: Binding affinity to XIAP BIR3 domain in Smac mimetic-sensitive human MDA-MB-231 cells assessed as increase in cellular IAP1 degradation at 5 uM after 24 hrs by Western blot analysis
- Type: cell-based
Activity calls are given as the source filed them. The rule behind the calls is not given here.
measurement-label: Activity

The following molecules have reported results that may help.
molecule: C=CCc1cccc(/C=N/NC(=O)[C@@H](NC(=O)[C@@H]2CC[C@@H]3CC[C@H](CCNC(=O)c4ccccc4)[C@H](NC(=O)[C@H](CC)NC)C(=O)N32)c2ccccc2)c1O
Activity: Active
--
molecule: CC[C@H](NC)C(=O)N[C@@H]1C(=O)N2[C@@H](CC[C@@H]1CNC(=O)c1ccccc1)CC[C@H]2C(=O)N[C@H](C(=O)NCCN(Cc1ccccn1)Cc1ccccn1)c1ccccc1
Activity: Active
--
molecule: CC[C@H](NC)C(=O)N[C@@H]1C(=O)N2[C@@H](CC[C@@H]1CNC(=O)c1ccccc1)CC[C@H]2C(=O)N[C@@H](C(=O)N(Cc1ccccn1)Cc1ccccn1)c1ccccc1
Activity: inactive
--
molecule: CC[C@H](NC)C(=O)N[C@@H]1C(=O)N2[C@@H](CC[C@@H]1CNC(=O)c1ccccc1)CC[C@H]2C(=O)NC(c1ccccc1)c1ccccc1
Activity: Active
--
molecule: CC[C@H](NC)C(=O)N[C@@H]1C(=O)N2[C@@H](CC[C@@H]1CNC(=O)c1ccccc1)CC[C@H]2C(=O)N(Cc1ccccn1)Cc1ccccn1
Activity: inactive
--
molecule: C=CCc1cccc(/C=N/NC(=O)CN2CCN(Cc3ccccc3)CC2)c1O [PAC-1]
Activity: inactive

Value of measured Activity for the entry CC[C@H](NC)C(=O)N[C@@H]1C(=O)N2[C@@H](CC[C@@H]1CNC(=O)c1ccccc1)CC[C@H]2C(=O)N[C@@H](C(=O)NCCN(Cc1ccccn1)Cc1ccccn1)c1ccccc1 : inactive

Value of measured Activity for the entry CC[C@H](NC)C(=O)N[C@@H]1C(=O)N2[C@@H](CC[C@@H]1CNC(=O)c1ccccc1)CC[C@H]2C(=O)N[C@H](C(=O)N(Cc1ccccn1)Cc1ccccn1)c1ccccc1 : Active

----------
- system-under-test: E3 ubiquitin-protein ligase XIAP (Homo sapiens, UniProt P98170)
- Sequence (P98170 whole entry, the tested form may be a part): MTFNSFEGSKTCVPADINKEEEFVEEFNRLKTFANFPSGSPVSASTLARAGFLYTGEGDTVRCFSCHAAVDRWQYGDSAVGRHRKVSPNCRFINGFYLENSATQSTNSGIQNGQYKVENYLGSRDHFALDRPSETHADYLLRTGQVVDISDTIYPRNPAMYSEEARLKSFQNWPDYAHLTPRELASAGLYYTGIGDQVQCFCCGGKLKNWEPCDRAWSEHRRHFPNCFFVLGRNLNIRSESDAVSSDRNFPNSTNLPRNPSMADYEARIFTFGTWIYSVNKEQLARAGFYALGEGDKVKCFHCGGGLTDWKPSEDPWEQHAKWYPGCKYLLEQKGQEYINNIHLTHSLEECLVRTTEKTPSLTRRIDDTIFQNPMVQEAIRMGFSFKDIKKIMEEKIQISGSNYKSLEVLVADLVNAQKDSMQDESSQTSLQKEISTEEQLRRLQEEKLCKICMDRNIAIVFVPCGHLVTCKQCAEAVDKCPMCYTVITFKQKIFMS
- assay-protocol: Binding affinity to XIAP BIR3 domain in Smac mimetic-sensitive human MDA-MB-231 cells assessed as increase in cleaved PARP expression at 5 uM after 24 hrs by Western blot analysis
- Type: cell-based
Calls of active or inactive are those of the source. The calls are words filed in the database; no cut-off is given here.
# output must be one of YES for active, NO for inactive

Take a look at these entries with their results.
smiles-str: CC[C@H](NC)C(=O)N[C@@H]1C(=O)N2[C@@H](CC[C@@H]1CNC(=O)c1ccccc1)CC[C@H]2C(=O)N[C@H](C(=O)N(Cc1ccccn1)Cc1ccccn1)c1ccccc1
classification: YES

smiles-str: CC[C@H](NC)C(=O)N[C@@H]1C(=O)N2[C@@H](CC[C@@H]1CNC(=O)c1ccccc1)CC[C@H]2C(=O)N[C@@H](C(=O)NCCN(Cc1ccccn1)Cc1ccccn1)c1ccccc1
classification: NO

smiles-str: C=CCc1cccc(/C=N/NC(=O)CN2CCN(Cc3ccccc3)CC2)c1O
classification: NO

State the result this test recorded for C=CCc1cccc(/C=N/NC(=O)[C@@H](NC(=O)[C@@H]2CC[C@@H]3CC[C@H](CCNC(=O)c4ccccc4)[C@H](NC(=O)[C@H](CC)NC)C(=O)N32)c2ccccc2)c1O .
YES

State the result this test recorded for CC[C@H](NC)C(=O)N[C@@H]1C(=O)N2[C@@H](CC[C@@H]1CNC(=O)c1ccccc1)CC[C@H]2C(=O)N(Cc1ccccn1)Cc1ccccn1 .
NO

----------
We begin with a simple list: items and their reported IC50.
- system-under-test: E3 ubiquitin-protein ligase XIAP (Homo sapiens, UniProt P98170)
- assay-protocol: Displacement of FITC-Smac from human recombinant His-tagged XIAP BIR3 domain (241 to 356 residues) expressed in Escherichia coli BL21(DE3) cells after 3 hrs by fluorescence polarization assay
Just the number please, in nM, no unit attached.

smiles-str: CC[C@H](NC)C(=O)N[C@@H]1C(=O)N2[C@@H](CC[C@@H]1CNC(=O)c1ccccc1)CC[C@H]2C(=O)N[C@H](C(=O)NCCN(Cc1ccccn1)Cc1ccccn1)c1ccccc1
reported-value: 91

smiles-str: C=CCc1cccc(/C=N/NC(=O)[C@@H](NC(=O)[C@@H]2CC[C@@H]3CC[C@H](CCNC(=O)c4ccccc4)[C@H](NC(=O)[C@H](CC)NC)C(=O)N32)c2ccccc2)c1O
reported-value: 1090

Value of measured IC50 for the entry CC[C@H](NC)C(=O)N[C@@H]1C(=O)N2[C@@H](CC[C@@H]1CNC(=O)c1ccccc1)CC[C@H]2C(=O)N[C@H](C(=O)N(Cc1ccccn1)Cc1ccccn1)c1ccccc1 : 370
